experiment: blood-stage malaria parasite viability loss – strain 3D7, DAPI fluorescence, 100 nL, primary screen (AID 1184);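 also: parasites grown inside human red blood cells in medium with human serum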; settings: P. falciparum 3D7 growth, 3 d, higher = more signal
experimental readout: z-score

>>> observed("O=C1O[C@H](c2ccccc2)[C@H](c2ccccc2)N2[C@H]1[C@@H](C(=O)NC[C@H](O)c1ccccc1)[C@]1(C(=O)Nc3ccc(C#CC4=CCCCC4)cc31)[C@H]2c1ccccc1OCCO")
-0.285
>>> observed("COC(=O)C(CC#Cc1ccc2c(c1)[C@]1(C(=O)N2)[C@H](c2ccc(O)cc2)N2[C@H](c3ccccc3)[C@H](c3ccccc3)OC(=O)[C@H]2[C@@H]1C(=O)N1CCN(c2ncccn2)CC1)C(=O)OC")
-2.26
>>> observed("COc1ccc([Si](C)(C)[C@H]2[C@H](CC(=O)N3CCC[C@H]3CO)O[C@@]3(C(=O)N(Cc4cccc(N5CCOC5=O)c4)c4ccccc43)[C@@H]2C)cc1")
-1.42

====

assay: plasmodial surface anion channel blockers, osmotic lysis – cell-based, P. falciparum Indochina, OD700, 2 h, primary screen (AID 1155);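 also: lysis reports solute entry through the parasite surface anion channel PSAC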; conditions: P. falciparum Indochina infected erythrocytes, higher = more signal, called active from +8 up or from −8 down
z-score by entry:
experimental readout: z-score

>>> observed("C=CCNC(=O)[C@@H]1[C@H]2C(=O)O[C@H](c3ccccc3)[C@H](c3ccccc3)N2[C@H](c2ccc(OCCO)cc2)[C@@]12C(=O)N(C(=O)OCCOC)c1ccc(C#CCNC(N)=O)cc12")
0.921
>>> observed("CC1CC/C=C\\[C@H]2OC34C=CCN(Cc5ccccc5)C(=O)[C@H]3N(C(C)CO)C(=O)[C@@H]4C2C(=O)O1 (stereo partly drawn)")
0.365
>>> observed("CCOC(=O)[C@H]1C/C=C/C[C@H](C(=O)OCC)C(=O)O[C@H]2[C@@H](OC)O[C@H](CO)[C@@H](OC(=O)c3ccc(Br)cc3)[C@@H]2OC1=O")
1.54

====

Readings of z-score for the listed molecules
assay: JC-1 mitochondrial signal, unstimulated myeloma cells – cell-based, JC-1 fluorescence, RPMI8226, 24 h, 100 nL compound, profiling panel (AID 1169); settings: JC-1 mitochondrial potential fluorescence, higher = more signal; also: test concentration not given here
experimental readout: z-score

>>> observed("O=C1O[C@@H](c2ccccc2)[C@@H](c2ccccc2)N2[C@@H](c3ccc(OCCO)cc3)[C@]3(C(=O)Nc4ccc(C#CC5=CCCCC5)cc43)[C@@H](C(=O)N3CCCCCCC3)[C@H]12")
-0.831
>>> observed("[N-]=[N+]=NCc1ccccc1[C@H]1OC(c2ccc(OCCCO)cc2)=N[C@@]1(Cc1ccccc1)C(=O)N1CCCCC1")
-0.931
>>> observed("CC(C)=CCCC(C)=CC(O)C1C=CC2C(=O)N(c3ccccc3)C(=O)C2N1Nc1ccc(C(C)C)cc1 (configuration not stated)")
0.465
>>> observed("CCCCN1CC=CC23O[C@@H]4/C=C\\CCCOC(=O)C4[C@H]2C(=O)N(CCCO)[C@@H]3C1=O (some centres not stated)")
0.16
>>> observed("COc1ccc([Si](C)(C)[C@H]2[C@H](CCn3cc([C@H](O)c4ccccc4)nn3)O[C@@]3(C(=O)N(C)c4ccccc43)[C@@H]2C)cc1")
-1.16
>>> observed("O=C1[C@H]2C=C(Br)[C@H](C[C@@H]2OCCCCCCO)[C@@]12CO2")
-0.601
>>> observed("O=C1C2C=CC(C(O)c3cc(C(F)(F)F)cc(C(F)(F)F)c3)N(Nc3ccccc3)C2C(=O)N1c1ccccc1 (configuration not stated)")
-0.982
